- measured.on: UniProt Q9UGI6
- assay.method.text: Automated whole cell patch-clamp (QPatch 16 HT), inhibition of SK3 current
- experimental.conditions: HEK-293 cells stably expressing hKCa2.3; symmetrical K+ solutions, free calcium 400 nM; effects normalized to N-methyl bicuculline
- Experimental: Automated whole cell patch-clamp recordings were performed using a QPatch 16 HT system and single-hole Qplates (Biolin Scientific, Sophion, Denmark) on HEK-293 cells stably expressing the human SK3 channel (hKCa2.3). Cells were cultured and prepared for experiments using normal cell culturing procedures. […] The free calcium concentration was calculated to 400 nM. […] Potency was quantified as the concentration needed to inhibit half of the SK channel activity and reported as an IC50 value. […]
quantity.measured: IC50

| compound | quantity.measured | observed.measurement |
| --- | --- | --- |
| O=C(CC(Nc1nc2ccccc2[nH]1)c1cccc(C(F)(F)F)c1)NCc1ccon1 (stereo not shown) | IC50 | < 10 µM |
| Cc1cccc(C(C)NC(=O)CC(Nc2nc3ccccc3[nH]2)c2cccc(C(F)(F)F)c2)n1 (stereo not shown) | IC50 | < 10 µM |
| O=C(CC(Nc1nc2ccccc2[nH]1)c1cccc(C(F)(F)F)c1)N1CCC(O)CC1 (stereo not shown) | IC50 | 10 to 100 µM |
| CN1CCN(C(=O)C(Nc2nc3ccccc3[nH]2)c2cccc(C(F)(F)F)c2)CC1 (stereo not shown) [Example 27] | IC50 | < 10 µM |
